For each of the molecules below, state its PDE4 inhibition relative to rolipram.
molecular target: Phosphodiesterase 4 (Homo sapiens, UniProt P27815+Q08499+Q07343+Q08493); experiment: PDE4 30 assay to measure the percent rolipram activity of the PDE4 assay at 30 micro M concentration of the compound.; format: protein assay
Numbers only, in %.

SMILES_REPR	STUDY_SYSTEM	PDE4 inhibition relative to rolipram, %
CCCCn1c(=O)c2c(ncn2S(=O)(=O)c2ccc(C(C)(C)C)cc2)n(CCCC)c1=O	Phosphodiesterase 4 (Homo sapiens, UniProt P27815+Q08499+Q07343+Q08493)	33
CCCCn1c(=O)n(CC2CCC2)c(=O)c2c1ncn2S(=O)(=O)c1ccc(OC)c(OC)c1	Phosphodiesterase 4 (Homo sapiens, UniProt P27815+Q08499+Q07343+Q08493)	87
CCCCn1c(=O)c2c(nc(C)n2S(=O)(=O)c2ccccc2)n(CCCC)c1=O	Phosphodiesterase 4 (Homo sapiens, UniProt P27815+Q08499+Q07343+Q08493)	100
CCCCn1c(=O)c2c(nc(C)n2S(=O)(=O)c2ccc(OC)c(OC)c2)n(CCCC)c1=O	Phosphodiesterase 4 (Homo sapiens, UniProt P27815+Q08499+Q07343+Q08493)	100
CCCCn1c(=O)c2c(ncn2S(=O)(=O)c2cc(C)c(Cl)cc2C)n(CCCC)c1=O	Phosphodiesterase 4 (Homo sapiens, UniProt P27815+Q08499+Q07343+Q08493)	72

Each molecule below has a recorded value; state its PDE4 inhibition relative to rolipram.
1. CCCCn1c(=O)c2c(ncn2S(=O)(=O)c2cccc3ccccc23)n(CCCC)c1=O
2. CCCCn1c(=O)c2c(nc(C)n2S(=O)(=O)CCCCl)n(CCCC)c1=O
3. CCCCn1c(=O)c2c(nc(C)n2S(=O)(=O)c2cccc3ccccc23)n(CCCC)c1=O
4. CCCCn1c(=O)n(CC=C(C)C)c(=O)c2c1ncn2S(=O)(=O)c1ccc(OC)c(OC)c1

Output:
17
95
94
77

Origin of values: ChEMBL document CHEMBL1132986
